Listed below: IC50 values for each entry.
molecular target: 5-hydroxytryptamine receptor 1B (Rattus norvegicus)
Sequence (P28564 whole entry): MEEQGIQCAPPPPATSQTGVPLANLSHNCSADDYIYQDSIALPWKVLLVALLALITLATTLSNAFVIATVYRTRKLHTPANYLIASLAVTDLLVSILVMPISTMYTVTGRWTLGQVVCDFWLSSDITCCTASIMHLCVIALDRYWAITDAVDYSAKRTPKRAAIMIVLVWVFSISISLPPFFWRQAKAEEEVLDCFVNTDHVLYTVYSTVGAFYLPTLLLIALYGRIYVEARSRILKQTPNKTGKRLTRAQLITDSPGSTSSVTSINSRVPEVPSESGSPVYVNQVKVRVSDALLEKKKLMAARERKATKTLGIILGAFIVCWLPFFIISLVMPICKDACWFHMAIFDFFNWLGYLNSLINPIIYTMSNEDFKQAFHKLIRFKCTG
QUANTITY_NAME: IC50 (nM)

Oc1nc2ccc(CCN3CCN(c4ccccc4O)CC3)cc2s1 :: 260
CN1C(=O)COc2cc(CCCCN3CCN(c4cccc(C(F)(F)F)c4)CC3)ccc21 :: 280
COc1ccccc1N1CCN(CCc2ccc3nc(O)sc3c2)CC1 :: 20
COc1ccccc1N1CCN(CCCc2ccc3nc(O)sc3c2)CC1 :: 61
Cn1c(=O)sc2cc(CCN3CCN(c4ccccc4O)CC3)ccc21 :: 31
Cn1c(=O)sc2cc(CCN3CCN(c4ccc(F)cc4)CC3)ccc21 :: 3000
Cn1c(=O)sc2cc(CCN3CCN(c4ccccc4)CC3)ccc21 :: 200
COc1ccccc1N1CCN(CCc2ccc3c(c2)sc(=O)n3C)CC1 :: 300
Oc1nc2ccc(CCN3CCN(c4ccccc4)CC3)cc2s1 :: 300

Reference for the values: ChEMBL document CHEMBL1131240
